test system: RPMI-8226; assay: Cytotoxicity against human RPMI-8226 cells assessed as decrease in cell viability at 10 to 100 uM measured after 48 hrs by MTT assay; format: functional, cell-based; conditions: dose 10-100 µM
Active and inactive are the calls of the source. No cut-off for these calls is given here.
Could you please pick one outcome from this set? T = active, F = inactive

Q: Identify the outcome logged in this assay for the compound shown: CC(C)=CCC/C(C)=C/Cn1cc(C=C(P(=O)(O)O)P(=O)(O)O)nn1
A: T

Q: Now try CC(C)=CCC/C(C)=C/Cn1cc(CC(O)(P(=O)(O)O)P(=O)(O)O)nn1 .
A: T

Q: Now try CC(C)=CCC/C(C)=C/Cn1cc(CC(CN)(P(=O)(O)O)P(=O)(O)O)nn1 .
A: T

Q: Now try C=C(Cc1cn(C/C=C(\C)CCC=C(C)C)nn1)P(=O)(O)O .
A: F

Q: Now try CC(C)=CCC/C(C)=C/Cn1cc(C2CC2(P(=O)(O)O)P(=O)(O)O)nn1 (configuration not stated) .
A: T

Further cases:
Q: Identify the outcome logged in this assay for the compound shown: CC(C)=CCC/C(C)=C/Cn1cc(CCP(=O)(O)O)nn1
A: F

Q: Now try CC(C)=CCC/C(C)=C/Cn1cc(CC(F)(P(=O)(O)O)P(=O)(O)O)nn1 .
A: T
